Origin of values: paper PMC2603313

SUBJECT_OF_TEST: T1, catalytic domain of mouse GSK3β (residues 27–393) (mouse, UniProt Q9WV60 27-393)
T1 construct: GSK3β (glycogen synthase kinase 3 beta), mouse, catalytic domain, residues 27-393; also called recombinant GSK3β catalytic domain; source: recombinant, expressed and purified as previously described [32]
ASSAY_SUMMARY: steady-state kinetics of enzyme inhibition (GSK3β kinase assay, band shift on SDS-PAGE); apparent Ki; 50 mM Tris pH 8.0, 10 mM MgCl2, 10 mM 2-mercaptoethanol, 1 mM ATP, 8 ng GSK3β catalytic domain, 6 µM primed β-catenin N-terminal fragment (1-133), 37°C; peptide 0, 1, 3, 10, 30 µM; (V0/Vi)−1 = [peptide]/Ki
CONDITION_SUMMARY: both partners purified
Square brackets hold non-standard residues; d marks the D form. pT = C[C@@H](OP(=O)(O)O)[C@H](N)C(=O)O; pS = N[C@@H](COP(=O)(O)O)C(=O)O
ATTRIBUTE_MEASURED: Ki (µM)
Give just the number in µM; leave the unit off.

Return Ki for the following binder: {biotin (sulfo-NHS-SS-biotin)}-NPPP[pS]PA[pT]ERSH-NH2 (LRP6, first PPPSPxS motif; The biotin is joined by a disulfide that can be cut by reduction; the kinase buffer holds 10 mM 2-mercaptoethanol; also called PPP(p)SPx(p)S; dually-phosphorylated peptide; source: synthetic peptide (solid-phase synthesis)) [dually-phosphorylated LRP6 PPPSPxS peptide (NPPPpSPApTERSH)]
13
